Target chain: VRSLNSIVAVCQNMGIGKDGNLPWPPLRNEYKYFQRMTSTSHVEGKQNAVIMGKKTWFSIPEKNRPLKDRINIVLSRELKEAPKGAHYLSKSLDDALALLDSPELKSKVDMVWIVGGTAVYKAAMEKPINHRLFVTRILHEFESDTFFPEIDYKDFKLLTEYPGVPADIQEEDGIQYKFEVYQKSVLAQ
REPORTED METRIC: IC50 (nM)
Quick note: give the figure in nM, leave out the unit.

Completed entries (count: 2):
CN(Cc1cnc2nc(N)nc(N)c2n1)c1ccc(C(=O)NC(CCCN)C(=O)O)cc1 (stereo not drawn)
250
CN(Cc1cnc2nc(N)nc(N)c2n1)c1ccc(C(=O)NC(CCCNC(=O)OCc2ccccc2)C(=O)OC(C)(C)C)cc1 (stereo not drawn)
3100

Now let's try a different one.
Could you tell me which IC50 is on file for CN(Cc1cnc2nc(N)nc(N)c2n1)c1ccc(C(=O)NC(CCCCN)C(=O)O)cc1 (stereo not drawn) ?
130
